TARGET DESC: A2A receptor (Homo sapiens, UniProt P29274)
Sequence (P29274 whole entry): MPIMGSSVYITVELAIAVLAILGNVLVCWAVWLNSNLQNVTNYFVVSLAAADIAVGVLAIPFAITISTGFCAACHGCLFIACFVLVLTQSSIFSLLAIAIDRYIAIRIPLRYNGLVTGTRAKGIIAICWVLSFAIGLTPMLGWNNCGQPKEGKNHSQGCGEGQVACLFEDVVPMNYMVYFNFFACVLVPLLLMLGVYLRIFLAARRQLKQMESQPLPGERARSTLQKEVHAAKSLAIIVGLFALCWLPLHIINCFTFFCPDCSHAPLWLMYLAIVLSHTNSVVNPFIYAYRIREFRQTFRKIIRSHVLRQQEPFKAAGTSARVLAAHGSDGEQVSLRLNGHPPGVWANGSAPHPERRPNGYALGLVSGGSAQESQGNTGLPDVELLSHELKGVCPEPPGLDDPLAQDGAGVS
TEST DESCRIPTION: A2A receptor antagonist functional assay (cAMP, A2A cell line)
Assay type: cell-based
REPORTED PROPERTY: pIC50
Give bare numbers, as −log10 of the molar value.

Look over these answered cases.
STRUCTURE SMILES	REPORTED PROPERTY	VALUE
Cc1ccc(-c2nc(N)nc3c(Cc4ccc(F)cc4C)cnn23)o1	pIC50	7.41
Nc1cccc(Cc2cnn3c(-c4ccco4)nc(N)nc23)n1	pIC50	7.34
Cc1ccc(-c2nc(N)nc3c(Cc4ccc(N)c(C)c4)c(C)nn23)o1	pIC50	8.30
COc1cccc(Cc2cnn3c(-c4ccc(C)o4)nc(N)nc23)n1	pIC50	8.64
Cc1ccc(-c2nc(N)nc3c(Cc4cc(N)c(F)cc4F)cnn23)o1	pIC50	8.80

# batch: return pIC50 for each of the 3 compounds below
1. Nc1cccc(Cc2cnn3c(-c4ccco4)nc(N)nc23)c1
2. Cc1ccc(-c2nc(N)nc3c(Cc4cccc(N)c4)cnn23)o1
3. Cc1ccc(-c2nc(N)nc3c(Cc4cccc(N)c4)c(F)nn23)o1

1. 7.46
2. 8.52
3. 8.85

// provenance: patent US20220339160A1
